Listed below: scaled log2 fold change values for each entry.
B1: library; numbered along this chain (parent)
chain: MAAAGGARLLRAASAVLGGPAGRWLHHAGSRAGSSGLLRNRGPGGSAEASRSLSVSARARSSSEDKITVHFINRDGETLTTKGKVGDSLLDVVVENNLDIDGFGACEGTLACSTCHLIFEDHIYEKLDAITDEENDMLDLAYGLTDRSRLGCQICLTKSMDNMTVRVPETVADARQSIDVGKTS

variants of: B1; assay: scaled log2 fold change in cell abundance, elesclomol vs control (0 = silent mean, 1 = nonsense mean) (scaled log2 ratio); higher = higher viability under elesclomol (loss of FDX1 cuproptosis function); details: with ABC1 FDX1 KO; elesclomol 5 nM; glucose 10 mM; 14 days;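 note: variant abundance is its share of total variant reads in each endpoint sample, from next-generation sequencing of the integrated ORF PCR-amplified out of genomic DNA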
Please reply with the value in numeric form only.

Here is how some variants turned out for scaled log2 fold change.
> print(dat)
   mutations            quantity.name  test.result
1      T131A  scaled log2 fold change       -0.777
2       S35K  scaled log2 fold change        0.175
3      L117Y  scaled log2 fold change            1
4       P43S  scaled log2 fold change       -0.443
5      D128G  scaled log2 fold change       0.0426

Requested field: scaled log2 fold change. Item: A105L
-0.395

Requested field: scaled log2 fold change. Item: Y124T
0.399

Requested field: scaled log2 fold change. Item: E120V
0.256

Requested field: scaled log2 fold change. Item: L140E
0.271

Requested field: scaled log2 fold change. Item: A28Y
-0.00855

Requested field: scaled log2 fold change. Item: A12G
0.259

Requested field: scaled log2 fold change. Item: S50A
-0.353

Requested field: scaled log2 fold change. Item: A57M
-0.0569
